Origin of values: patent US5216175A

# Tested on: P. falciparum D-6 clone
# protocol-details: In vitro antimalarial activity, P. falciparum D-6 clone
# Format: cell-based
# assay-context: Plasmodium falciparum; Table 2; D-6 clone, drug-resistant strains of P. falciparum; read-out: IC50 D-6 clone
Known IC50 of a selection of compounds
Number only, in ng/mL; omit the unit.

# compound, property, value-reported
rows = [
    ("CC(C)[C@H]1C(=O)O[C@@H]2O[C@@]3(C)CC[C@H]4[C@H](C)CC[C@@H]1[C@@]24OO3 [compound 2820]", "IC50", 0.27),
    ("CC(C)CC[C@H]1C(=O)O[C@@H]2O[C@@]3(C)CC[C@H]4[C@H](C)CC[C@@H]1[C@@]24OO3 [compound 2822]", "IC50", 0.35),
    ("C[C@@H]1CC[C@H]2[C@@H](CCCc3ccccc3)C(=O)O[C@@H]3O[C@@]4(C)CC[C@@H]1[C@]32OO4 [compound 2821]", "IC50", 0.09),
    ("C[C@@H]1CC[C@H]2C(C)(C)C(=O)O[C@@H]3O[C@@]4(C)CC[C@@H]1[C@]32OO4 [compound 2800]", "IC50", 20.9),
    ("O=C1C[C@@H]2CCC[C@@H]3C[C@H]4OO[C@]32[C@H](O1)O4 (relative stereo) [compound 4589]", "IC50", 129),
    ("C[C@@H]1CC[C@H]2[C@@H](CC(=O)O)C(=O)O[C@@H]3O[C@@]4(C)CC[C@@H]1[C@]32OO4 [compound 4595]", "IC50", 830),
]

Q: I am curious: what IC50 value has been reported for C[C@H]1[C@@H](OOC(C)(C)C)O[C@@H]2O[C@@]3(C)CC[C@H]4[C@H](C)CC[C@@H]1[C@@]24OO3 [compound 4588] ?
A: 0.53

Q: What do you get for C[C@@H]1CC[C@H]2CC(=O)N(C)[C@@H]3O[C@@]4(C)CC[C@@H]1[C@@]23OO4 [compound 4585] ?
A: 2.05
